# protocol: Mycobacterium tuberculosis growth inhibition, primary screen (AID 1259343)
# measurement conditions: at 10 µM
Out of some 6,200 compounds screened, about 2,900 (47%) were called active. Cut-off read from the data, not from the text of the source: active = inhibition above about 50%; inactive = the rest. So high a share suggests a set chosen from earlier hits. Some of the results follow.
Labels: 1 (yes) = active, 0 (no) = inactive

smiles_string=Cc1c(-c2ccccc2)[nH]c2c(CNc3nccc(N)n3)cc(Cl)cc12 classification="0 (no)"
smiles_string=c1ccc(CNc2nc(-c3ccccc3)nc3ccccc23)cc1 classification="0 (no)"
smiles_string=Fc1cc(NCc2ccccc2)nc(NCc2ccccc2)n1 classification="0 (no)"
smiles_string=CCCc1ccc(CN2CCN(Cc3cccc(F)c3)CC2)o1 classification="0 (no)"
smiles_string=c1ccc(-c2nc3c(NC4CCCCC4)nccc3[nH]2)cc1 classification="1 (yes)"
smiles_string=O=S(=O)(NCCCNS(=O)(=O)c1ccc(Cl)cc1)c1ccc(Cl)cc1 classification="0 (no)"
smiles_string=Cc1cccc(-c2nc3c(NCc4ccccc4)nccc3[nH]2)c1 classification="1 (yes)"
smiles_string=Fc1ccc(-c2nc3c(NCc4ccccc4)nccc3[nH]2)cc1F classification="0 (no)"
smiles_string=CCCCN(C(=O)c1nc2nccc(C)n2n1)c1ccccc1 classification="0 (no)"
smiles_string=O=C(NCCC12CC3CC(CC(C3)C1)C2)c1ccc2c(=O)n3c(nc2c1)CCCCC3 classification="1 (yes)"
smiles_string=Cn1ccnc1-c1nccn1Cc1ccc(CN2CCCC2)cc1 classification="0 (no)"

====

# protocol: Mycobacterium tuberculosis growth inhibition, primary screen (AID 1259343)
# measurement conditions: at 10 µM, hits give high values
Among all 6,200 compounds or so, about 2,900 (47%) were called active. The set was probably picked from earlier hits. The list shows a part of the results.
Reported values of inhibition for individual entries
quantity kind: inhibition

molecule=N#Cc1ccc(CN2CC=C(c3ccc(O)cc3)CC2)c(F)c1 quantity_kind=inhibition readout_value="-43% (inactive)"
molecule=Oc1ccc(C2=CCN(c3ncnc4ccccc34)CC2)cc1 quantity_kind=inhibition readout_value="15.6% (inactive)"
molecule=CN(C)C(=S)SSC(=S)N(C)C quantity_kind=inhibition readout_value="102% (active)"
molecule="CCCCC(CC)CN=C(N)NC(N)=NCCCCCCN=C(N)NC(N)=NCC(CC)CCCC (stereo unspecified)" quantity_kind=inhibition readout_value="94.5% (active)"
molecule=O=S(=O)(/C=C/C=C/Sc1ccccc1)c1ccccc1 quantity_kind=inhibition readout_value="90.4% (active)"
molecule="Cn1cccc1C1CCCCCN1C(=O)c1ccc(NC2CC2)nc1 (stereo unspecified)" quantity_kind=inhibition readout_value="-11.4% (inactive)"

====

# protocol: Mycobacterium tuberculosis growth inhibition, primary screen (AID 1259343)
# measurement conditions: at 10 µM
Among all 6,200 compounds or so, about 2,900 (47%) were called active. Rule as the data show it: active = inhibition above about 50%; inactive = the rest. So high a share suggests a set chosen from earlier hits. The list shows a part of the results.
Classes used: y (active), n (inactive)

molecule=COc1ccc(S(=O)(=O)Nc2ccc3c(c2)OC(F)(F)O3)cc1 classification=n
molecule="CC(C)C(C)CNC(=O)N1CCN(c2ccc(Cl)cn2)CC1 (centres undefined)" classification=y
molecule=Clc1ccc(NN=Cc2ccccn2)cc1Cl classification=n
molecule="O=C1N(c2ccc(Cl)cc2)C(c2ccc3c(c2)OCO3)C1(F)F (centres undefined)" classification=y
molecule="CS(=O)c1nncn1CC#Cc1ccc(C(F)(F)F)cc1 (centres undefined)" classification=n
molecule=COc1ccccc1CNC(=O)C1(S(=O)(=O)c2ccc(Cl)cc2)CCCC1 classification=n
molecule="O=C1N(c2ccc3c(c2)OCO3)C(c2cccc(F)c2)C1(F)F (centres undefined)" classification=n
molecule=COc1ccccc1CN(C(=O)Nc1ccccc1Cl)C1CC1 classification=y
molecule=c1ccc(Cc2nnc3sc(-c4ccco4)nn23)cc1 classification=n
molecule=c1cc2c(cc1[C@H]1OC[C@H]3[C@@H]1CO[C@H]3c1ccc3c(c1)OCO3)OCO2 classification=n
molecule=O=S(=O)(Nc1ccc(F)c(F)c1)c1ccc(Cl)c(Cl)c1 classification=n
molecule=CN(Cc1ccccc1O)C(=O)C1CCN(c2ccc(Cl)cn2)CC1 classification=n
molecule=N#Cc1ccc(CSc2nnc(-c3ccccc3)o2)cc1 classification=n
molecule=CCCN(C)c1cc(Oc2ccc(C)cc2)ncn1 classification=n
molecule="CC1CCc2c(Cl)cc(Cl)c(O)c2N1 (centres undefined)" classification=y
molecule=CCN(CC(=O)Nc1ccc(C#N)cc1)C1CCCCC1 classification=n
molecule=O=C(NCCc1ccc(F)cc1)c1ccc(-c2cccc(Cl)c2)s1 classification=n
molecule=COc1ccccc1NC(=O)N(Cc1ccsc1)C1CC1 classification=n
molecule=c1ccc(-c2nnc(SCc3nnc(-c4ccco4)o3)o2)cc1 classification=y
molecule=CNc1cccc(-c2ccc(O)cc2)n1 classification=n
molecule=c1ccc(-c2nnc(CSc3nnc(-c4ccccc4)o3)o2)cc1 classification=y
molecule=Clc1ccc(CSc2nnc(-c3ccco3)o2)cc1Cl classification=y
molecule="O=C1N(c2ccccc2)C(c2ccco2)C1(F)F (centres undefined)" classification=n
molecule="COCc1ccccc1CNC(=O)CN1CCC(C)Sc2ccccc21 (centres undefined)" classification=n
molecule="O=C(NC1CCc2ccccc21)c1ccc(-c2ccc3c(c2)OCCO3)s1 (centres undefined)" classification=n
molecule="O=C1N(c2ccc3c(c2)OCO3)C(c2ccc3c(c2)OCO3)C1(F)F (centres undefined)" classification=y
molecule=Brc1ccccc1-c1nnc(SCc2nnc(-c3ccco3)o2)o1 classification=n
molecule=O=C(CSC(F)(F)F)Nc1cnn(-c2ccccc2)c1 classification=y
molecule=C=CCNc1nc(NCCCN2CCCC2=O)c2sc(-c3ccccc3)cc2n1 classification=n
molecule="COc1ccc(OCCSC2=Nc3ccccc3C3CC=NN23)cc1 (centres undefined)" classification=n
molecule="CC1Cc2cc(-c3cc(C(=O)O)no3)ccc2O1 (centres undefined)" classification=n
molecule=CCCCCc1ccc(NC(=O)CCN2CCSC2=O)cc1 classification=y
molecule=O=S(=O)(Nc1cc(Cl)ccc1Cl)c1ccc(Cl)cc1 classification=y
molecule=CC(C)Oc1ccc(NC(=O)C2CCOCC2)cc1Cl classification=y
molecule=CN1C(=CC=NNc2nc3ccccc3s2)C(C)(C)c2ccccc21 classification=y
molecule=CSCCCNC(=O)c1ccc(-c2ccc(F)cc2)s1 classification=n
molecule=S=P(NN=C1CCSC1)(c1ccccc1)c1ccccc1 classification=y
molecule=Cc1cccc(-c2ccc(CNC(=O)c3ccc(=O)n(C)n3)cc2)c1 classification=y
molecule=CCCCCNC(=O)C1CCN(C(=O)c2oc3ccc(Cl)cc3c2C)CC1 classification=n
molecule=CN1C(=CC=NN=c2sc3ccccc3n2C)C(C)(C)c2ccccc21 classification=n
molecule=CC(C)Oc1ccc(NC(=O)Cc2cccs2)cc1Cl classification=n
molecule=C[C@@H]1[C@H]2C[C@@H](C[C@H]1NC(=O)c1ccc(Nc3cccc(C(F)(F)F)c3)nc1)C2(C)C classification=n
molecule="CCCCC(CC)COCCCNC(=O)c1ccc(-c2ccc3c(c2)OCO3)s1 (centres undefined)" classification=y
molecule="S=C1Nc2ccccc2C2CC=NN12 (centres undefined)" classification=y
molecule=Cn1nnnc1SCc1ccc(Cl)c(Cl)c1 classification=n
molecule=Cc1cc(C)cc(Oc2cc(-n3nc(C)cc3C)ncn2)c1 classification=y
molecule=O=C(Nc1ncc(-c2ccccc2)s1)OCC(F)(F)F classification=n
molecule=Cc1cccc(-c2ccc(NC(=O)C3CCN(C(=O)c4cnsn4)CC3)cc2)c1 classification=y
molecule=O=C(NCc1cccs1)c1cc(Br)ccc1F classification=y

====

# protocol: Mycobacterium tuberculosis growth inhibition, primary screen (AID 1259343)
# measurement conditions: at 10 µM
Out of some 6,200 compounds screened, about 2,900 (47%) were called active. Cut-off read from the data, not from the text of the source: active = inhibition above about 50%; inactive = the rest. The set was probably picked from earlier hits. The list shows a part of the results.
Labels: active, inactive

compound=Fc1cccc(F)c1-c1nc(CSc2nccc(C(F)(F)F)n2)cs1 classification=active
compound="O=C(Nc1ccc(Oc2ccccc2Cl)cc1)N1CCOC2CCCCC21 (stereo not drawn)" classification=inactive
compound=Cc1cc2cc(CNC(=S)Nc3ccccc3)ccc2n1C classification=inactive
compound=Cn1c(CNC(=O)Cc2c(Cl)cccc2Cl)n[nH]c1=S classification=inactive
compound="CC(=O)NCCC1CCCCN1C(=O)Nc1ccc(Oc2ccccc2)cc1 (stereo not drawn)" classification=active
compound="CC(NC(=O)c1ccccc1F)c1ccc2c(c1)OCCO2 (stereo not drawn)" classification=inactive
compound=O=S(=O)(Nc1cnc(Br)cn1)c1cccc(Cl)c1 classification=inactive
compound=O=C(Cc1ccccc1)N1CCC(Cc2ccc(-c3ccccc3)cc2)CC1 classification=active
compound=COC(=O)c1cccc(S(=O)(=O)N(C)Cc2ccc(C)cc2C)c1 classification=active
compound=N#CC(=Cc1ccc(Sc2ccccc2)o1)C(=O)NC1CCCCC1 classification=active
compound=Cc1c(NC(=S)NCc2ccccn2)c(=O)n(-c2ccccc2)n1C classification=active
compound="O=C(c1ccc(-c2ccccc2)cc1)C1CCCN(C(=O)c2ccc3nccnc3c2)C1 (stereo not drawn)" classification=inactive
compound="N#CC1(c2ccccc2)CCC2(CC1)N=C(N)Nc1nc3cc4c(cc3n12)OCCCO4 (stereo not drawn)" classification=inactive
compound=O=C(CCl)N1CCC(Cc2ccccc2)CC1 classification=inactive
compound=CCN(CC)[P+](N(C)Cc1ccco1)(N(CC)CC)N(CC)CC classification=inactive
compound=CN(Cc1ccc2nsnc2c1)Cc1nc(-c2ccc3c(c2)OCO3)no1 classification=active
compound=O=C(CN1CCN(CCC23CC4CC(CC(C4)C2)C3)CC1)N1CCCCC1 classification=inactive
compound=COC(=O)CC(=O)N1CCC(Cc2ccc(-c3ccccc3)cc2)CC1 classification=active
compound=CCN(CC)c1ccc(-c2n[nH]c(=S)o2)cc1 classification=inactive
compound=O=S(=O)(Nc1ccc(Br)cn1)c1ccc(Cl)cc1 classification=active
compound=O=C1N=C(c2ccccc2)OC1=CC=Cc1ccccc1 classification=inactive
compound=O=C1c2ccccc2S(=O)(=O)N1Cc1ccccc1Oc1ccccc1 classification=inactive
compound=CN(Cc1ccc2nonc2c1)Cc1nc(-c2ccc3c(c2)OCO3)no1 classification=inactive
